TARGET OF ASSAY: T1, citrullinated histone 4-derived peptide (SEQ ID NO: 20), C-terminal biotin (human, citrulline at position 3; biotin at the C-terminus)
T1 construct: Immobilized on streptavidin biosensors (Octet RED96); also called H4-derived peptide; N-terminal histone 4 peptide
T1 peptide: SGXGKGGKGLGK
PROCEDURE DETAILS: Octet RED96 off-rate screen, biotinylated peptide on streptavidin biosensors, antibody 72 nM, 30 C
METRIC: binding result

BINDER	METRIC	RESULT
hMQ22.101HC7/LC27 (antibody, V domains shown, also called isomerization mutant; heavy chain hVH22.101HC7 with light chain hVL22.101LC27) VH: QVQLVQSGAEVKKPGSSVKVSCKASGYTFTNYGMHWVRQAPGQGLEWMGWINTYSGEATYAQKFQGRVTITADESTSTAYMELSSLRSEDTAVYYCLRGYTYQSFDEGGDYWGQGTLVTVSS VL: DVVMTQSPLSLPVTLGQPASISCRSSQSLLDTDAKTYLNWFQQRPGQSPRRLIYLVSKLDSGVPDRFSGSGSGTDFTLKISRVEAEDVGVYYCWQGTHFPYTFGQGTKLEIK	binding result	binds
hMQ22.101HC8/LC17 (antibody, V domains shown, also called isomerization mutant; heavy chain hVH22.101HC8 with light chain hVL22.101LC17) VH: QVQLVQSGAEVKKPGSSVKVSCKASGYTFTNYGMHWVRQAPGQGLEWMGWINTYSGEATYVDDFQGRVTITADESTSTAYMELSSLRSEDTAVYYCLRGYTYQSFDEGGDYWGQGTLVTVSS VL: DVVMTQSPLSLPVTLGQPASISCRSSQSLLDTDGKTYLNWFQQRPGQSPRRLIYLVSKLDSGVPDRFSGSGSGTDFTLKISRVEAEDVGVYYCWQGTHFPYTFGQGTKLEIK	binding result	binds
hMQ22.101HC7/LC42 (antibody, V domains shown, also called isomerization mutant; heavy chain hVH22.101HC7 with light chain hVL22.101LC42) VH: QVQLVQSGAEVKKPGSSVKVSCKASGYTFTNYGMHWVRQAPGQGLEWMGWINTYSGEATYAQKFQGRVTITADESTSTAYMELSSLRSEDTAVYYCLRGYTYQSFDEGGDYWGQGTLVTVSS VL: DVVMTQSPLSLPVTLGQPASISCRSSQSLLDNDGKTYLNWFQQRPGQSPRRLIYLVSKLDSGVPDRFSGSGSGTDFTLKISRVEAEDVGVYYCWQGTHFPYTFGQGTKLEIK	binding result	binds
